Value source: paper doi:10.1101/2025.06.05.658000

- target-or-system: HLA-DR (DRA1*01:01 / DRB1*16:02), soluble knob-into-hole Fc heterodimer (human)
- assay-notes: ELISA
outcome-measure: Ki (nM)
Please state the figure in nM; there is no need to write the unit.

Qu. Tell me the measured Ki of KPVSKMRMATPLLMQALPM [human CLIP peptide, unlabelled competitor] , please.
Ans. 47
